Quick reference: Particle size of the listed items.
# Measurement Protocol: Characterization of lipid nanoparticles encapsulating Fluc-mRNA prepared from different cap structures
# Format: physicochemical
# Condition Summary: LNP (YK-009/DSPC/cholesterol/DMG-PEG2000) with Fluc-mRNA transcribed using the named cap analog
A number alone suffices; assume nm.

Worked examples, 4 compounds total:
COC[C@H]1[C@@H](O)[C@H]([n+]2cn(C)c3c(=O)[nH]c(N)nc32)O[C@@H]1COP(=O)(O)OP(=O)(O)OP(=O)(O)OC[C@H]1O[C@@H](n2cnc3c(N)ncnc32)[C@H](OC)[C@@H]1OP(=O)(O)OC[C@H]1O[C@@H](n2cnc3c(=O)[nH]c(N)nc32)[C@H](O)[C@@H]1O [HN3002, reference compound]
75.35
CO[C@@H]1[C@H](OP(=O)(O)OC[C@H]2O[C@@H](n3cnc4c(=O)[nH]c(N)nc43)[C@H](O)[C@@H]2O)[C@@H](COP(=O)(O)OP(=O)(O)OP(=O)(O)OC[C@H]2O[C@@H]([n+]3cn(C)c4c(=O)[nH]c(N)nc43)[C@H](O)[C@@H]2O)O[C@H]1n1cnc2c(N)ncnc21 [N-7113, reference compound]
87.45
COC1[C@H](n2cnc3c(N)ncnc32)O[C@H](COP(=O)(O)OP(=O)(O)OP(=O)(O)OC[C@@]23COC([C@H]([n+]4cn(C)c5c(=O)[nH]c(N)nc54)O2)[C@H]3O)[C@H]1OP(=O)(O)OCC1OC(n2cnc3c(=O)[nH]c(N)nc32)C(O)C1O (stereo partly drawn) [Compound 14, reference compound]
79.35
CO[C@@H]1[C@H](OP(=O)(O)OC[C@H]2O[C@@H](n3cnc4c(=O)[nH]c(N)nc43)[C@H](O)[C@@H]2O)[C@@H](COP(=O)(O)OP(=O)(O)OP(=O)(O)OC[C@H]2OC([n+]3cn(C)c4c(=O)[nH]c(N)nc43)[C@H](O)[C@@H](O)[C@@H]2O)O[C@H]1n1cnc2c(N)ncnc21 (stereo partly drawn)
75.45

[in] Reported Particle size for CO[C@@H]1[C@H](OP(=O)(O)OC[C@H]2O[C@@H](n3cnc4c(=O)[nH]c(N)nc43)[C@H](O)[C@@H]2O)[C@@H](COP(=O)(O)OP(=O)(O)OP(=O)(O)OC[C@@]2(OC)O[C@@H]([n+]3cn(C)c4c(=O)[nH]c(N)nc43)[C@H](O)[C@@H]2O)O[C@H]1n1cnc2c(N)ncnc21 [compound 5227, reference compound] : what is it?
[out] 83.34

[in] Reported Particle size for CO[C@@H]1[C@H](OP(=O)(O)OC[C@H]2O[C@@H](n3cnc4c(=O)[nH]c(N)nc43)[C@H](O)[C@@H]2O)[C@@H](COP(=O)(O)OP(=O)(O)OP(=O)(O)OC[C@H]2O[C@@H]([n+]3cn(C)c4c(=O)[nH]c(N)nc43)[C@H](O)[C@@H]2C(C)F)O[C@H]1n1cnc2c(N)ncnc21 (stereo partly drawn) : what is it?
[out] 86.35
